- study-target: T1, short isoform of VEGF (8-109) (UniProt P15692 214-315)
- T1 construct: range 8-109; Immobilized by amine coupling for SPR; in solution for the fluorescence assay; also called vascular endothelial growth factor
- T1 sequence (looked up): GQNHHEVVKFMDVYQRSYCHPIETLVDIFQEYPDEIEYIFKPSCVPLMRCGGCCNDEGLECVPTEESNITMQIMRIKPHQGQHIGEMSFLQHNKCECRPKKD
- experiment-notes: fluorescence-based association assay in solution, 25 mM Tris pH 7.2, 37 C
assay-endpoint: kon (M⁻¹ s⁻¹)
Quick note: give the figure in M⁻¹ s⁻¹, leave out the unit.

binder: Fab Y0101 variant, light chain S26K, D28K, S30K (Fab, V domains shown, Fab of Y0101 with several light chain substitutions) VH: EVQLVESGGGLVQPGGSLRLSCAASGYTFTNYGMNWVRQAPGKGLEWVGWINTYTGEPTYAADFKRRFTFSLDTSKSTAYLQMNSLRAEDTAVYYCAKYPHYYGSSHWYFDVWGQGTLVTVSS VL: DIQLTQSPSSLSASVGDRVTITCSAKQKIKNYLNWYQQKPGKAPKVLIYFTSSLHSGVPSRFSGSGSGTDFTLTISSLQPEDFATYYCQQYSTVPWTFGQGTKVEIKR
units-label: M⁻¹ s⁻¹
number: 1.3e+06

binder: Fab Y0101 variant, light chain S52K, S53K, L54T (Fab, V domains shown, Fab of Y0101 with several light chain substitutions) VH: EVQLVESGGGLVQPGGSLRLSCAASGYTFTNYGMNWVRQAPGKGLEWVGWINTYTGEPTYAADFKRRFTFSLDTSKSTAYLQMNSLRAEDTAVYYCAKYPHYYGSSHWYFDVWGQGTLVTVSS VL: DIQLTQSPSSLSASVGDRVTITCSASQDISNYLNWYQQKPGKAPKVLIYFTKKTHSGVPSRFSGSGSGTDFTLTISSLQPEDFATYYCQQYSTVPWTFGQGTKVEIKR
units-label: M⁻¹ s⁻¹
number: 1.3e+06

Now examine the next entry.
q: So what does the record say about kon for 34-TKKT (VH-(T28D, S100aR)+VL-(S26T, Q27K, D28K, S30T)) (Fab, V domains shown, Fab of Y0101 with both altered chains) VH: EVQLVESGGGLVQPGGSLRLSCAASGYDFTNYGMNWVRQAPGKGLEWVGWINTYTGEPTYAADFKRRFTFSLDTSKSTAYLQMNSLRAEDTAVYYCAKYPHYYGRSHWYFDVWGQGTLVTVSS VL: DIQLTQSPSSLSASVGDRVTITCSATKKITNYLNWYQQKPGKAPKVLIYFTSSLHSGVPSRFSGSGSGTDFTLTISSLQPEDFATYYCQQYSTVPWTFGQGTKVEIKR ?
a: 3.3e+06
